system: HeLa Kyoto; test: solubility in G1/S (NP-40 vs SDS abundance) (log2 ratio); higher = more soluble; settings: cell cycle stage: G1/S
For each entry below, report its solubility in G1/S (log2) value.
Kindly provide the number alone.

Input line: Given the sequence MAASALYACTKCTQRYPFEELSQGQQLCKECRIAHPIVKCTYCRSEFQQESKTNTICKKCAQNVKQFGTPKPCQYCNIIAAFIGTKCQRCTNSEKKYGPPQTCEQCKQQCAFDRKEEGRRKVDGKLLCWLCTLSYKRVLQKTKEQRKSLGSSHSNSSSSSLTEKDQHHPKHHHHHHHHHHRHSSSHHKISNLSPEEEQGLWKQSHKSSATIQNETPKKKPKLESKPSNGDSSSINQSADSGGTDNFVLISQLKEEVMSLKRLLQQRDQTILEKDKKLTELKADFQYQESNLRTKMNSMEKAHKETVEQLQAKNRELLKQVAALSKGKKFDKSGSILTSP [FAM76B] , what is its reported solubility in G1/S (log2)?
Output line: -0.529

Input line: Look up solubility in G1/S (log2): MALRVVRSVRALLCTLRAVPSPAAPCPPRPWQLGVGAVRTLRTGPALLSVRKFTEKHEWVTTENGIGTVGISNFAQEALGDVVYCSLPEVGTKLNKQDEFGALESVKAASELYSPLSGEVTEINEALAENPGLVNKSCYEDGWLIKMTLSNPSELDELMSEEAYEKYIKSIEE [GCSH]
Output line: 0.297

Input line: # get_value(readout='solubility in G1/S (log2)', item= MSGNGNAAATAEENSPKMRVIRVGTRKSQLARIQTDSVVATLKASYPGLQFEIIAMSTTGDKILDTALSKIGEKSLFTKELEHALEKNEVDLVVHSLKDLPTVLPPGFTIGAICKRENPHDAVVFHPKFVGKTLETLPEKSVVGTSSLRRAAQLQRKFPHLEFRSIRGNLNTRLRKLDEQQEFSAIILATAGLQRMGWHNRVGQILHPEECMYAVGQGALGVEVRAKDQDILDLVGVLHDPETLLRCIAERAFLRHLEGGCSVPVAVHTAMKDGQLYLTGGVWSLDGSDSIQETMQATIHVPAQHEDGPEDDPQLVGITARNIPRGPQLAAQNLGISLANLLLSKGAKNILDVARQLNDAH [HMBS] )
Output line: 0.328

###

test system: HeLa Kyoto; test: solubility in G1/S (NP-40 vs SDS abundance) (log2 ratio); higher = more soluble; conditions: cell cycle stage: G1/S
Label YES when solubility in G1/S (log2) is at or above 0.2; anything below gets NO.

Input line: Determine whether this sequence has solubility in G1/S (log2) no lower than 0.2: MSDIGDWFRSIPAITRYWFAATVAVPLVGKLGLISPAYLFLWPEAFLYRFQIWRPITATFYFPVGPGTGFLYLVNLYFLYQYSTRLETGAFDGRPADYLFMLLFNWICIVITGLAMDMQLLMIPLIMSVLYVWAQLNRDMIVSFWFGTRFKACYLPWVILGFNYIIGGSVINELIGNLVGHLYFFLMFRYPMDLGGRNFLSTPQFLYRWLPSRRGGVSGFGVPPASMRRAADQNGGGGRHNWGQGFRLGDQ [DERL1]
Output line: NO

Input line: Given the entry MAGNKGRGRAAYTFNIEAVGFSKGEKLPDVVLKPPPLFPDTDYKPVPLKTGEGEEYMLALKQELRETMKRMPYFIETPEERQDIERYSKRYMKVYKEEWIPDWRRLPREMMPRNKCKKAGPKPKKAKDAGKGTPLTNTEDVLKKMEELEKRGDGEKSDEENEEKEGSKEKSKEGDDDDDDDAAEQEEYDEEEQEEENDYINSYFEDGDDFGADSDDNMDEATY [POLR3G] , answer whether its solubility in G1/S (log2) meets or surpasses 0.2.
Output line: YES

Input line: Is solubility in G1/S (log2) at least 0.2? Consider MKDRLEQLKAKQLTQDDDTDAVEIAIDNTAFMDEFFSEIEETRLNIDKISEHVEEAKKLYSIILSAPIPEPKTKDDLEQLTTEIKKRANNVRNKLKSMEKHIEEDEVRSSADLRIRKSQHSVLSRKFVEVMTKYNEAQVDFRERSKGRIQRQLEITGKKTTDEELEEMLESGNPAIFTSGIIDSQISKQALSEIEGRHKDIVRLESSIKELHDMFMDIAMLVENQGEMLDNIELNVMHTVDHVEKARDETKKAVKYQSQARKKLIIIIVLVVVLLGILALIIGLSVGLN [STX3]
Output line: NO

Input line: Confirm if solubility in G1/S (log2) reported for the sequence MSTEGGGRRCQAQVSRRISFSASHRLYSKFLSDEENLKLFGKCNNPNGHGHNYKVVVTVHGEIDPATGMVMNLADLKKYMEEAIMQPLDHKNLDMDVPYFADVVSTTENVAVYIWDNLQKVLPVGVLYKVKVYETDNNIVVYKGE [PTS] is 0.2 or above.
Output line: NO

Input line: Does the sequence MAAAVPQRAWTVEQLRSEQLPKKDIIKFLQEHGSDSFLAEHKLLGNIKNVAKTANKDHLVTAYNHLFETKRFKGTESISKVSEQVKNVKLNEDKPKETKSEETLDEGPPKYTKSVLKKGDKTNFPKKGDVVHCWYTGTLQDGTVFDTNIQTSAKKKKNAKPLSFKVGVGKVIRGWDEALLTMSKGEKARLEIEPEWAYGKKGQPDAKIPPNAKLTFEVELVDID [FKBP3] have recorded solubility in G1/S (log2) that is 0.2 or more?
Output line: YES

Input line: Reported solubility in G1/S (log2) reaches at least 0.2 for MDIAIHHPWIRRPFFPFHSPSRLFDQFFGEHLLESDLFPTSTSLSPFYLRPPSFLRAPSWFDTGLSEMRLEKDRFSVNLDVKHFSPEELKVKVLGDVIEVHGKHEERQDEHGFISREFHRKYRIPADVDPLTITSSLSSDGVLTVNGPRKQVSGPERTIPITREEKPAVTAAPKK [CRYAB] ?
Output line: NO

###

Please go through the items and note down their melting temperature.
tested on: HeLa Kyoto; experiment: melting temperature (median over replicates), in situ; higher = more thermally stable; settings: cell cycle stage: G1/S
Just the number in °C, nothing appended.

Input line: Recorded melting temperature for MMATPNQTACNAESPVALEEAKTSGAPGSPQTPPERHDSGGSLPLTPRMESHSEDEDLAGAVGGLGWNSRSPRTQSPGGCSAEAVLARKKHRRRPSKRKRHWRPYLELSWAEKQQRDERQSQRASRVREEMFAKGQPVAPYNTTQFLMNDRDPEEPNLDVPHGISHPGSSGESEAGDSDGRGRAHGEFQRKDFSETYERFHTESLQGRSKQELVRDYLELEKRLSQAEEETRRLQQLQACTGQQSCRQVEELAAEVQRLRTENQRLRQENQMWNREGCRCDEEPGT [HEXIM2] , please?
Output line: 54.6

Input line: Any idea what its melting temperature is? The sequence is MEVTGVSAPTVTVFISSSLNTFRSEKRYSRSLTIAEFKCKLELLVGSPASCMELELYGVDDKFYSKLDQEDALLGSYPVDDGCRIHVIDHSGARLGEYEDVSRVEKYTISQEAYDQRQDTVRSFLKRSKLGRYNEEERAQQEAEAAQRLAEEKAQASSIPVGSRCEVRAAGQSPRRGTVMYVGLTDFKPGYWIGVRYDEPLGKNDGSVNGKRYFECQAKYGAFVKPAVVTVGDFPEEDYGLDEI [TBCB]
Output line: 49.5

Input line: Quick one: melting temperature of MAGVGAGPLRAMGRQALLLLALCATGAQGLYFHIGETEKRCFIEEIPDETMVIGNYRTQMWDKQKEVFLPSTPGLGMHVEVKDPDGKVVLSRQYGSEGRFTFTSHTPGDHQICLHSNSTRMALFAGGKLRVHLDIQVGEHANNYPEIAAKDKLTELQLRARQLLDQVEQIQKEQDYQRYREERFRLTSESTNQRVLWWSIAQTVILILTGIWQMRHLKSFFEAKKLV [TMED4] ?
Output line: 56

###

system: HeLa Kyoto; assay: thermal stability score vs G1/S (z-score of summed log2 fold changes over temperatures); higher = more thermally stable than in G1/S; conditions: cell cycle stage: mitosis
Class (required): determined from thermal stability score; valid ranges are bottom (below -1), middle (-1 to below -0.5), top (-0.5 or more)

Input line: Returns: class label. Input: MNPIVVVHGGGAGPISKDRKERVHQGMVRAATVGYGILREGGSAVDAVEGAVVALEDDPEFNAGCGSVLNTNGEVEMDASIMDGKDLSAGAVSAVQCIANPIKLARLVMEKTPHCFLTDQGAAQFAAAMGVPEIPGEKLVTERNKKRLEKEKHEKGAQKTDCQKNLGTVGAVALDCKGNVAYATSTGGIVNKMVGRVGDSPCLGAGGYADNDIGAVSTTGHGESILKVNLARLTLFHIEQGKTVEEAADLSLGYMKSRVKGLGGLIVVSKTGDWVAKWTSTSMPWAAAKDGKLHFGIDPDDTTITDLP [ASRGL1]
Output line: bottom

Input line: Sort MARPLVPSSQKALLLELKGLQEEPVEGFRVTLVDEGDLYNWEVAIFGPPNTYYEGGYFKARLKFPIDYPYSPPAFRFLTKMWHPNIYETGDVCISILHPPVDDPQSGELPSERWNPTQNVRTILLSVISLLNEPNTFSPANVDASVMYRKWKESKGKDREYTDIIRKQVLGTKVDAERDGVKVPTTLAEYCVKTKAPAPDEGSDLFYDDYYEDGEVEEEADSCFGDDEDDSGTEES [CDC34] into one of the categories.
Output line: top

Input line: Lab note: sort MKLYSLSVLYKGEAKVVLLKAAYDVSSFSFFQRSSVQEFMTFTSQLIVERSSKGTRASVKEQDYLCHVYVRNDSLAGVVIADNEYPSRVAFTLLEKVLDEFSKQVDRIDWPVGSPATIHYPALDGHLSRYQNPREADPMTKVQAELDETKIILHNTMESLLERGEKLDDLVSKSEVLGTQSKAFYKTARKQNSCCAIM [YKT6] into the matching thermal stability score band.
Output line: middle

Input line: For this substance, which bin applies? MDSALSDPHNGSAEAGGPTNSTTRPPSTPEGIALAYGSLLLMALLPIFFGALRSVRCARGKNASDMPETITSRDAARFPIIASCTLLGLYLFFKIFSQEYINLLLSMYFFVLGILALSHTISPFMNKFFPASFPNRQYQLLFTQGSGENKEEIINYEFDTKDLVCLGLSSIVGVWYLLRKHWIANNLFGLAFSLNGVELLHLNNVSTGCILLGGLFIYDVFWVFGTNVMVTVAKSFEAPIKLVFPQDLLEKGLEANNFAMLGLGDVVIPGIFIALLLRFDISLKKNTHTYFYTSFAAYIFGLGLTIFIMHIFKHAQPALLYLVPACIGFPVLVALAKGEVTEMFSYEESNPKDPAAVTESKEGTEASASKGLEKKEK [HM13]
Output line: bottom

Input line: Hi there! Could you help me figure out the category for MSSSLRPGPSRWRRAASIVLAAGWSRPETATPPSRPPPAEGFRLLLLQRSPHQGFMPGAHVFSGGVLDAADRSADWLGLFAPHHGPPRFGLGPAPFSRTAFPSLPDTDDHKTDNTGTLPEDVAFRICAVREAFEEAGVLLLRPRTSPPGPAPGPGLALEPPPGLASWRDRVRQDPRHFLRLCAHLDCTPDIWALHNWSAWLTPFLRGTTRRFDTAFFLCCLREPPPVYPDLAEVVGYQWSSPSEATESFLSKEIWLPPPQFYEVRRLANFASLSDLHKFCLGRALEGLERWLPIILLTADGMVHLLPGDELYLEDSDFLENLMSTEKKTEEIMKEGKQFHRIVTYHRHLYDIHVTVQPKYKHVYPKNSVVRKSHL [NUDT19] please?
Output line: bottom

Input line: Bin this entry: MAAQCVRLARRSLPALALSLRPSPRLLCTATKQKNSGQNLEEDMGQSEQKADPPATEKTLLEEKVKLEEQLKETVEKYKRALADTENLRQRSQKLVEEAKLYGIQAFCKDLLEVADVLEKATQCVPKEEIKDDNPHLKNLYEGLVMTEVQIQKVFTKHGLLKLNPVGAKFDPYEHEALFHTPVEGKEPGTVALVSKVGYKLHGRTLRPALVGVVKEA [GRPEL1]
Output line: bottom

Input line: For MGNGGRSGLQQGKGNVDGVAATPTAASASCQYRCIECNQEAKELYRDYNHGVLKITICKSCQKPVDKYIEYDPVIILINAILCKAQAYRHILFNTQINIHGKLCIFCLLCEAYLRWWQLQDSNQNTAPDDLIRYAKEWDFYRMFAIAALEQTAYFIGIFTFLWVERPMTAKKKPNFILLLKALLLSSYGKLLLIPAVIWEHDYTSVCLKLIKVFVLTSNFQAIRVTLNINRKLSFLAVLSGLLLESIMVYFFQSMEWDVGSDYAIFKSQDF [ARV1] , which thermal stability score bin applies?
Output line: middle

Input line: Lab note: which band did MAAQRPLRVLCLAGFRQSERGFREKTGALRKALRGRAELVCLSGPHPVPDPPGPEGARSDFGSCPPEEQPRGWWFSEQEADVFSALEEPAVCRGLEESLGMVAQALNRLGPFDGLLGFSQGAALAALVCALGQAGDPRFPLPRFILLVSGFCPRGIGFKESILQRPLSLPSLHVFGDTDKVIPSQESVQLASQFPGAITLTHSGGHFIPAAAPQRQAYLKFLDQFAE [OVCA2] land in?
Output line: top

Input line: Please classify: RAPGEF2
Output line: bottom

Input line: For the record MSKYKLIMLRHGEGAWNKENRFCSWVDQKLNSEGMEEARNCGKQLKALNFEFDLVFTSVLNRSIHTAWLILEELGQEWVPVESSWRLNERHYGALIGLNREQMALNHGEEQVRLWRRSYNVTPPPIEESHPYYQEIYNDRRYKVCDVPLDQLPRSESLKDVLERLLPYWNERIAPEVLRGKTILISAHGNSSRALLKHLEGISDEDIINITLPTGVPILLELDENLRAVGPHQFLGDQEAIQAAIKKVEDQGKVKQAKK [BPGM] , report the class its thermal stability score corresponds to.
Output line: top
